# experimentNotes: soluble fraction after stress (log2 fold change); higher = more stays soluble; pooled small domains, quantitative proteomics
# testSettings: stress: pH 4
quantityKind: soluble fraction (log2)
Write the number on its own, no unit after it.

Tell me soluble fraction (log2) reported for HMTNTWNNIVERNDLFFKKFTNTPFNGKIETYWPNGNLKETGIITDGKKDNLWEYYYENGNPKEVEF
-0.0781

Tell me soluble fraction (log2) reported for HMGVGIEALAVEVDRIRQVLTGGGALSDIQLFSQLKALGEVKTALSSMTDPRARELEKRVAQLLEASLRT
-0.323

Tell me soluble fraction (log2) reported for HMEQSGDELKTWVDQAIAAYPEKVKEYQQGKKGLLALFIGEVMKRSKGTADPKKVNQLVTEALS
-0.211

Tell me soluble fraction (log2) reported for HMAGTRVWSENGQLYVTAAVSGRANVYNVLGKLNRSLTFSAGETKSVSVPAGIYVVSLNNGKAYKVAV
0.0936

Tell me soluble fraction (log2) reported for HMQKVPDAFKAEQVQTLITRLGVSRAELARTLDVSLSTVNKWASGAVEPKGSALVLLKVLWMHGFKAL
0.03
